system: HepG2; experiment: GSK_TCMDC: Percent inhibition of human HepG2 cell line. Test compounds present at 10uM.; assay type: functional
// classify: if (Inhibition < 7%) 1 (yes) else 0 (no)

Example entries and their recorded answers appear below.
> print(dat)
                                   compound  assayed.system    class
1  CS(=O)(=O)Nc1ccc2[nH]cc(C3CCN(CC4CCC(NC(=O)/C=C/c5ccc(Cl)c(Cl)c5)CC4)CC3)c2c1 (stereo not given)           HepG2   0 (no)
2  Cc1ccc(CC(C)NC[C@H](O)c2cccc(Cl)c2)cc1 (stereo not given in full)           HepG2  1 (yes)
3  CCOC(=O)CCCN1C(=O)CN=C(c2ccccc2)c2cc(Cl)ccc21           HepG2   0 (no)

Now turn to the next compound.
Ask | Could you please tell me whether Inhibition recorded for CC(C)CNCc1ccc(-c2cccc(CN(C(=O)NC3CCCCC3)C3CCN(Cc4ccccc4)CC3)c2)cc1.O=C(O)C(F)(F)F is less than 7%?
Reply | 0 (no)
